# Measurement Target: T1, human IL-2Rβ (human, UniProt P14784 27-240, limits assumed)
# T1 construct: Recombinant protein, coated (ELISA) or immobilised on CM5 (SPR); also called hu IL-2R; interleukin 2 receptor β-chain
# T1 sequence: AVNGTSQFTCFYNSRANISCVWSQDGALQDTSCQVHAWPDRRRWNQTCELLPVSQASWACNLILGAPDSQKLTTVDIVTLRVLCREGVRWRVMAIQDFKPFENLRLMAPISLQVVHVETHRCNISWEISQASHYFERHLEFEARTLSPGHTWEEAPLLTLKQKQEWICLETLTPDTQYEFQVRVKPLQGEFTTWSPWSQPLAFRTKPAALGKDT
# Test Details: SPR (Biacore), P.E. off-rate ranking
Assay Endpoint: koff (s⁻¹)
Give bare numbers, in s⁻¹.

Illustrative cases are given below, each with its answer.
FJ1427_P035MP03B05 (VHH, soluble VHH in periplasmic extract; also called clone nr) VHH: EVQLVESGGGLVQAGGSLRLACALSGDVFVRYTMAWFRQAPGKEREFVASVTDSGRTTDYVASVQGRFTVSRDNNKNTVYLQMNSLKPEDTAVYYCAANTDYFQIRSLDRNTWGQGTQVTVSS : 0.000898
FJ1427 P035MP03A03 (VHH, soluble VHH in periplasmic extract; also called clone nr) VHH: EVQLVESGGGSVQTGGSLRLSCVVSGSHFISDVMGWYRQVPGKQRELVADMADGGSVKYGDSVKGRFTILRDSVKNTVTLQMSSLNPEDTGVYYCKAGLWITGRHFDYWGQGTQVTVTS : 0.000248
FJ1427_P035MP03G08 (VHH, soluble VHH in periplasmic extract; also called clone nr) VHH: QVQLVESGGGLVQAGGSLRLACALSGDVFVRYTMAWFRQAPGKGREFVASVTDSGRTTDYVASVQGRFTVSRDNNKNTVYLQMNSLKPEDTAVYYCAANTDYFQIRSLDRNTWGQGTQVTVSS : 0.00055

Now look at this entry.
Look at this binder and give its reported koff. FJ1427_P035MP03E04 (VHH, soluble VHH in periplasmic extract; also called clone nr) VHH: QVQLVESGGGLVQTGGSLRLSCAVSGSHFISDVMGWYRQVPEKQRELVADMADGNSAKYADSVKGRFSILRDSVKNTVYLQMSSLKPEDTGIYYCKAGLWIAGRHSDYWGQGTQVTVSS
0.000253
